# Method: Steady-state plasma DTG pharmacokinetics with and without CBZ (phase I open-label fixed-sequence crossover study)
# Type: in vivo, human
# Condition details: human, plasma, oral; DTG 50 mg once daily + CBZ 300 mg twice daily, day 5 of period 3, n = 14; read-out: t1/2 (terminal elimination half-life) of DTG, geometric mean (CV%) (converted)
Property name: half-life (h)
Lab book: enter the figure in h, no units written.

query: For C[C@@H]1CCO[C@H]2Cn3cc(C(=O)NCc4ccc(F)cc4F)c(=O)c(O)c3C(=O)N12 [DTG, Dolutegravir] , what is its reported half-life?
result: 7.31

----------
# Method: Steady-state plasma DTG pharmacokinetics with and without CBZ (phase I open-label fixed-sequence crossover study)
# Format: in vivo, human
# Condition details: human, plasma; DTG 50 mg once daily alone, day 5 of period 1, oral with moderate-fat meal, healthy subjects, n = 16; read-out: AUC(0-τ) of plasma DTG, geometric mean (CV%)
Property name: AUC (ng·h/mL)
Lab book: enter the figure in ng·h/mL, no units written.

query: For C[C@@H]1CCO[C@H]2Cn3cc(C(=O)NCc4ccc(F)cc4F)c(=O)c(O)c3C(=O)N12 , what is its reported AUC?
result: 53800

----------
# Method: Steady-state plasma DTG pharmacokinetics with and without CBZ (phase I open-label fixed-sequence crossover study)
# Format: in vivo, human
# Condition details: human, plasma, oral; DTG 50 mg once daily alone, day 5 of period 1, n = 16; read-out: Cmax of plasma DTG, geometric mean (CV%)
# Description: This was a phase I, single-site, open-label, fixed-sequence, crossover study with three treatment periods to evaluate the effect of an oral extended-release formulation of CBZ on the steady-state PK of orally administered DTG in 16 healthy subjects. […] The lower limit of quantification for DTG in plasma was 20 ng/mL, and the upper limit of quantification was 20,000 ng/mL. […] Precision, measured as the percent coefficient of variation, ranged from 3.0 to 5.9 % across the quality control range. […]
Property name: Cmax
Returns: string containing the numeric result and its unit.

query: For C[C@@H]1CCO[C@H]2Cn3cc(C(=O)NCc4ccc(F)cc4F)c(=O)c(O)c3C(=O)N12 , what is its reported Cmax?
result: 4160 ng/mL
